subject_of_test: Gag-Pol polyprotein (Human immunodeficiency virus type 1 group M subtype B (isolate HXB2), UniProt P04585)
measurement_notes: 3'-P Inhibitory Assay
recorded_metric: log10 of IC50 (log10 of the value in µM)
Lab note - IC50 converted to log10 from values in µM.

• CCOc1ccc(NS(=O)(=O)c2ccc(NC(=O)c3cc(O)c(O)c(O)c3)cc2)cc1 = 0.78
• O=C(/C=C/c1ccc(O)c(O)c1)Nc1ccc(S(=O)(=O)Nc2ccc(Br)cc2)cc1 = 1.54
• CC(=O)Oc1ccc(/C=C/C(=O)Nc2ccc(S(=O)(=O)Nc3ccc(Cl)c(Cl)c3)cc2)cc1OC(C)=O = 1.88
• Cc1ccc(NS(=O)(=O)c2ccc(NC(=O)c3cc(O)c(O)c(O)c3)cc2)cc1C = 0.90
• CC(=O)Oc1ccc(/C=C/C(=O)Nc2ccc(S(=O)(=O)Nc3cc(C)cc(C)c3)cc2)cc1OC(C)=O = 1.90

Pending compound:
Looking for the measured log10 of IC50 of O=C(/C=C/c1ccc(O)c(O)c1)Nc1ccc(S(=O)(=O)NCCc2ccc(F)cc2)cc1 , can you help?
1.15

These entries and their values trace back to BindingDB's records for doi:10.3109/14756366.2011.604851.
